# Tested on: UACC-62 melanoma
# experiment-summary: NCI tumour cell line growth inhibition, 48 h
The following compounds are shown together with reported TGI values.

These recorded examples may help you get a feel for the data.
compound	TGI
CCCCCCCCCCCC1N=C(N)NC(CCCO)=C1C(=O)OC (stereo unspecified)	21.5 µM
C/C=C(/CCCCNCCCC)[Si](C)(C)C	32.7 µM
CCOc1ccc(NC(=O)CC2SC(N)=NC2=O)cc1 (stereo unspecified)	> 100 µM

Query TGI on UACC-62 melanoma for "CC(=O)Oc1ccccc1C(=O)C1c2cccc(O)c2C(=O)c2c(O)cccc21" 2.23 µM

Item: "CN1CN(c2ccccc2)C2(CCN(CCCC(=O)c3cccs3)CC2)C1=O" > 100 µM

Item: COC1CC(n2cnc3c(N)ncnc32)OC1CO (stereo unspecified) > 100 µM

Item: "CSc1nc(-c2ccccc2)c2c(n1)-c1ccccc1CC2" > 100 µM

Item: "CCSc1nc(COC(=O)NC)c(COC(=O)NC)n1C" 51.2 µM

Item: CC(=O)C1=C([O-])C(C)OC1=O.CC(=O)C1=C([O-])C(C)OC1=O.[NH-]C1CCCC[C@H]1[NH-].[Pt+4] (stereo unspecified) > 100 µM

Item: "O=C1CCc2cc3c(cc21)CC1(Cc2ccccc2C1)C3" > 88.3 µM

Item: CC(=O)Nc1ccc(N2C(=O)/C(=C\c3cccc(Oc4ccccc4)c3)SC2c2ccccc2)cc1 (stereo unspecified) > 100 µM
